Test system: Staphylococcus epidermidis
Assay: Growth inhibition of Staphylococcus epidermidis GTC 18972 at 50 uM relative to control
Type: functional
Conditions: read-out: GI
Label NO if inhibition of growth at 50 µM falls below 30%; label YES in every other case.

Query smiles	Class label
COC(=O)CC1=NN(c2ccccc2)C(=O)/C1=C\c1ccc(N(C)C)cc1	NO
COC(=O)CC1=NN(c2ccccc2)C(=O)/C1=C\c1ccc(Cl)cc1	YES
COC(=O)CC1=NN(c2ccccc2)C(=O)/C1=C\c1ccco1	NO
COC(=O)CC1=NN(c2ccccc2)C(=O)/C1=C\c1ccc(OC)cc1OC	NO
CCOc1ccc(/C=C2\C(=O)N(c3ccccc3)N=C2CC(=O)OC)cc1OC	NO
COC(=O)CC1=NN(c2ccccc2)C(=O)/C1=C\c1c[nH]c2ccccc12	NO
COC(=O)CC1=NN(c2ccccc2)C(=O)/C1=C\c1cc(OC)c(OC)c(OC)c1	YES
COC(=O)CC1=NN(c2ccccc2)C(=O)/C1=C\c1ccccc1Br	YES
COC(=O)CC1=NN(c2ccccc2)C(=O)/C1=C\c1ccsc1	YES

* * *

# inhibition of growth at 50 µM listing for each entry below
System: Pseudomonas aeruginosa
Test: Growth inhibition of Pseudomonas aeruginosa PAO1 at 50 uM relative to control
Assay type: functional
Details: read-out: GI

Query smiles	Unit text	inhibition of growth at 50 µM
COC(=O)CC1=NN(c2ccccc2)C(=O)/C1=C\c1ccc(N(C)C)cc1	%	2.45
COC(=O)CC1=NN(c2ccccc2)C(=O)/C1=C\c1ccco1	%	-14.8
COC(=O)CC1=NN(c2ccccc2)C(=O)/C1=C\c1ccc(Cl)cc1	%	-5.15
COC(=O)CC1=NN(c2ccccc2)C(=O)/C1=C\c1ccsc1	%	10.8
COC(=O)CC1=NN(c2ccccc2)C(=O)/C1=C\c1c[nH]c2ccccc12	%	-10.8
